The values you see were collected from patent US12668585B2.

Target: CDK2/Cyclin E (Homo sapiens, UniProt P24941)
Construct: purchased Eurofins 14-475
Test: Biochemical CDK inhibition assay (Caliper mobility shift), CDK2/Cyclin E
Conditions: read-out: CDK2/cyclin E1 IC50
pIC50: −log10 of the molar value.
Please respond with reported pIC50 for every item in the list.

[ask] Return reported pIC50. Input compound: C[C@@H](O)[C@H](C)n1cc(-c2nc(Nc3ccc(S(N)(=O)=O)cc3F)ncc2C(F)(F)F)cn1 (single isomer, unassigned)
[reply] ≥ 8.00

[ask] Return reported pIC50. Input compound: C[C@@H](O)Cn1cc(-c2nc(Nc3ccc(S(N)(=O)=O)cc3F)ncc2C(F)(F)F)cn1
[reply] ≥ 8.00

[ask] Return reported pIC50. Input compound: NS(=O)(=O)c1ccc(Nc2ncc(C(F)(F)F)c(-c3cnn(CC(O)C4CC4)c3)n2)c(F)c1 (centres unmarked)
[reply] 7.70 to 8.00

[ask] Return reported pIC50. Input compound: Cc1cc(Nc2ncc(C(F)(F)F)c(-c3cnn(CC(C)(C)O)c3)n2)cc(C)c1S(N)(=O)=O
[reply] 7.70 to 8.00

[ask] Return reported pIC50. Input compound: NS(=O)(=O)c1ccc(Nc2ncc(C(F)(F)F)c(-c3cnn(C4(CO)CC4)c3)n2)c(F)c1
[reply] ≥ 8.00

[ask] Return reported pIC50. Input compound: CC(C)(O)Cn1cc(-c2nc(Nc3ccc(S(N)(=O)=O)c(Cl)c3F)ncc2C(F)(F)F)cn1
[reply] 7.70 to 8.00

[ask] Return reported pIC50. Input compound: C[C@@H](n1cc(-c2nc(Nc3ccc(S(N)(=O)=O)cc3F)ncc2C(F)(F)F)cn1)C(C)(C)O (single isomer, unassigned)
[reply] ≥ 8.00

[ask] Return reported pIC50. Input compound: CC(C)(O)Cn1cc(-c2nc(Nc3ccc(S(N)(=O)=O)cc3)ncc2C(F)(F)F)cn1
[reply] ≥ 8.00

[ask] Return reported pIC50. Input compound: CC(C)(O)Cn1cc(-c2nc(Nc3ccc(S(N)(=O)=O)cc3)ncc2Cl)cn1
[reply] ≥ 8.00

[ask] Return reported pIC50. Input compound: C[C@H](O)Cn1cc(-c2nc(Nc3ccc(S(N)(=O)=O)cc3F)ncc2C(F)(F)F)cn1
[reply] 7.70 to 8.00

[ask] Return reported pIC50. Input compound: CC(C)(O)Cn1cc(-c2nc(Nc3ccc(S(N)(=O)=O)cc3Cl)ncc2F)cn1
[reply] 7.52 to 7.70

[ask] Return reported pIC50. Input compound: C[C@H](O)[C@H](C)n1cc(-c2nc(Nc3ccc(S(N)(=O)=O)cc3F)ncc2C(F)(F)F)cn1 (single isomer, unassigned)
[reply] ≥ 8.00

[ask] Return reported pIC50. Input compound: CCc1cnc(Nc2ccc(S(N)(=O)=O)cc2)nc1-c1cnn(CC(C)(C)O)c1
[reply] ≥ 8.00

[ask] Return reported pIC50. Input compound: Cc1cc(S(N)(=O)=O)ccc1Nc1ncc(F)c(-c2cnn(CC(C)(C)O)c2)n1
[reply] ≥ 8.00

* * *

Please respond with reported IC50 for every item in the list.
Molecular target: CDK2/Cyclin E (Homo sapiens)
Construct: purchased Eurofins 14-475
Assay: Biochemical CDK inhibition assay (Caliper mobility shift), CDK2/Cyclin E
Details: read-out: CDK2/cyclin E1 IC50

[ask] Return reported IC50. Input compound: CCc1cnc(Nc2ccc(S(N)(=O)=O)cc2F)nc1-c1cnn(CC(C)(C)O)c1 [Example 42]
[reply] 20 to 30 nM

[ask] Return reported IC50. Input compound: N#Cc1cnc(Nc2ccc(S(N)(=O)=O)cc2)nc1-c1cnn(CCO)c1 [Example 34]
[reply] 10 to 20 nM

[ask] Return reported IC50. Input compound: CC(C)(O)Cn1cc(-c2nc(Nc3ccc(S(N)(=O)=O)cc3)ncc2C(F)F)cn1 [Example 4]
[reply] ≤ 10 nM

[ask] Return reported IC50. Input compound: C[C@H](O)[C@@H](C)n1cc(-c2nc(Nc3ccc(S(N)(=O)=O)cc3F)ncc2C(F)(F)F)cn1 (single isomer, unassigned) [Example 15]
[reply] ≤ 10 nM

* * *

Please respond with reported IC50 for every item in the list.
Target: CDK1/Cyclin B1, GST-tag (Homo sapiens)
Construct: GST; purchased BPS 40454
Sequence (P06493 whole entry): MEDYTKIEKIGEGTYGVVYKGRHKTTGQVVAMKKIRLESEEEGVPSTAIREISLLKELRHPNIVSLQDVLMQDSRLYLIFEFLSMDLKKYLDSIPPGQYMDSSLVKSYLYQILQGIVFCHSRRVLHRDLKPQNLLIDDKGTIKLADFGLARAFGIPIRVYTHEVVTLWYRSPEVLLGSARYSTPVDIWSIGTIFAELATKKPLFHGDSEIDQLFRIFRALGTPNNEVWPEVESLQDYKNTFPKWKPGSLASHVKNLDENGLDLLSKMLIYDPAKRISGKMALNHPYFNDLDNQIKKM
Sequence (P14635 whole entry partner): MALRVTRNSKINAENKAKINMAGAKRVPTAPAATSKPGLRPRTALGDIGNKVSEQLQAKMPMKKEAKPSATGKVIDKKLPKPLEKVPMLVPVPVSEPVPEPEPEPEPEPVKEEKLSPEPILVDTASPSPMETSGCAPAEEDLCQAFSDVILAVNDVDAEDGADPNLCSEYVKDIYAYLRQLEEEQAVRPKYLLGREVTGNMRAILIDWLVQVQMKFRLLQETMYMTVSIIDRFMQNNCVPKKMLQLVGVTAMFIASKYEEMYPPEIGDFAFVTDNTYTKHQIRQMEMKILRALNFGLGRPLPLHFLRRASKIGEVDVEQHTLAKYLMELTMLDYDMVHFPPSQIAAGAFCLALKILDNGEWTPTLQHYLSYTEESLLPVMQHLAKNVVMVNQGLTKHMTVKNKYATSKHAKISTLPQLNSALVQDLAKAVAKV
Experiment: Biochemical CDK inhibition assay (Caliper mobility shift), CDK1/Cyclin B1

[ask] Return reported IC50. Input compound: Cc1cc(S(N)(=O)=O)ccc1Nc1ncc(Cl)c(-c2cnn(CC(C)(C)O)c2)n1
[reply] < 100 nM

[ask] Return reported IC50. Input compound: NS(=O)(=O)c1ccc(Nc2ncc(C(F)(F)F)c(-c3cnn(C4(CO)CC4)c3)n2)c(F)c1
[reply] 100 to 500 nM

[ask] Return reported IC50. Input compound: C[C@H](n1cc(-c2nc(Nc3ccc(S(N)(=O)=O)cc3F)ncc2C(F)(F)F)cn1)C(C)(C)O (single isomer, unassigned)
[reply] < 100 nM

[ask] Return reported IC50. Input compound: N#Cc1cnc(Nc2ccc(S(N)(=O)=O)cc2)nc1-c1cnn(C2COC2)c1
[reply] ≥ 500 nM

* * *

Target: CDK2/Cyclin E (Homo sapiens)
Construct: purchased Eurofins 14-475
Assay: Biochemical CDK inhibition assay (Caliper mobility shift), CDK2/Cyclin E
Conditions: read-out: CDK2/cyclin E1 IC50
Description: […]
Metric: IC50

[ask] Fill in: IC50 on CDK2/Cyclin E (Homo sapiens), entry COc1cc(S(N)(=O)=O)ccc1Nc1ncc(F)c(-c2cnn(CC(C)(C)O)c2)n1
[reply] 0.03 to 0.1 µM

[ask] Fill in: IC50 on CDK2/Cyclin E (Homo sapiens), entry CC(C)(O)Cn1cc(-c2nc(Nc3ccc(S(N)(=O)=O)cc3F)ncc2C#N)cn1
[reply] ≤ 0.01 µM

[ask] Fill in: IC50 on CDK2/Cyclin E (Homo sapiens), entry NS(=O)(=O)c1ccc(Nc2ncc(C(F)(F)F)c(-c3cnn(C4CCOCC4)c3)n2)c(F)c1
[reply] ≤ 0.01 µM

[ask] Fill in: IC50 on CDK2/Cyclin E (Homo sapiens), entry Cc1cc(Nc2ncc(C(F)(F)F)c(-c3cnn(CC(C)(C)O)c3)n2)c(F)cc1S(N)(=O)=O
[reply] 0.02 to 0.03 µM

[ask] Fill in: IC50 on CDK2/Cyclin E (Homo sapiens), entry N#Cc1cnc(Nc2ccc(S(N)(=O)=O)cc2)nc1-c1cnn(C2COC2)c1
[reply] 0.01 to 0.02 µM

[ask] Fill in: IC50 on CDK2/Cyclin E (Homo sapiens), entry Cc1cnc(Nc2ccc(S(N)(=O)=O)cc2)nc1-c1cnn(CC(C)(C)O)c1
[reply] ≤ 0.01 µM

[ask] Fill in: IC50 on CDK2/Cyclin E (Homo sapiens), entry Cc1cnc(Nc2ccc(S(N)(=O)=O)cc2F)nc1-c1cnn(CC(C)(C)O)c1
[reply] 0.01 to 0.02 µM

[ask] Fill in: IC50 on CDK2/Cyclin E (Homo sapiens), entry COc1cc(S(N)(=O)=O)ccc1Nc1ncc(C(F)(F)F)c(-c2cnn(CC(C)(C)O)c2)n1
[reply] ≤ 0.01 µM

* * *

Target: CDK1/Cyclin B1, GST-tag (Homo sapiens)
Construct: GST; purchased BPS 40454
Test: Biochemical CDK inhibition assay (Caliper mobility shift), CDK1/Cyclin B1
Please respond with reported IC50 for every item in the list.

[ask] Return reported IC50. Input molecule: C[C@@H](O)[C@H](C)n1cc(-c2nc(Nc3ccc(S(N)(=O)=O)cc3F)ncc2C(F)(F)F)cn1 (single isomer, unassigned)
[reply] 100 to 500 nM

[ask] Return reported IC50. Input molecule: Cc1cnc(Nc2ccc(S(N)(=O)=O)cc2F)nc1-c1cnn(CC(C)(C)O)c1
[reply] ≥ 500 nM

[ask] Return reported IC50. Input molecule: CC(C)(O)Cn1cc(-c2nc(Nc3ccc(S(N)(=O)=O)cc3)ncc2C(F)F)cn1
[reply] < 100 nM

[ask] Return reported IC50. Input molecule: Cc1c(S(N)(=O)=O)ccc(Nc2ncc(C(F)(F)F)c(-c3cnn(CC(C)(C)O)c3)n2)c1F
[reply] 100 to 500 nM

[ask] Return reported IC50. Input molecule: NS(=O)(=O)c1ccc(Nc2ncc(C(F)(F)F)c(-c3cnn(CC4(O)COC4)c3)n2)c(F)c1
[reply] ≥ 500 nM

[ask] Return reported IC50. Input molecule: CC(C)(O)Cn1cc(-c2nc(Nc3ccc(S(N)(=O)=O)cc3)ncc2F)cn1
[reply] < 100 nM

[ask] Return reported IC50. Input molecule: CC(C)(O)Cn1cc(-c2nc(Nc3ccc(S(N)(=O)=O)cc3)ncc2C(F)(F)F)cn1
[reply] < 100 nM

[ask] Return reported IC50. Input molecule: CCc1cnc(Nc2ccc(S(N)(=O)=O)cc2F)nc1-c1cnn(CC(C)(C)O)c1
[reply] ≥ 500 nM

[ask] Return reported IC50. Input molecule: Cc1cc(S(N)(=O)=O)ccc1Nc1ncc(F)c(-c2cnn(CC(C)(C)O)c2)n1
[reply] 100 to 500 nM

[ask] Return reported IC50. Input molecule: C[C@@H](n1cc(-c2nc(Nc3ccc(S(N)(=O)=O)cc3F)ncc2C(F)(F)F)cn1)C(C)(C)O (single isomer, unassigned)
[reply] 100 to 500 nM

[ask] Return reported IC50. Input molecule: CC(C)(O)Cn1cc(-c2nc(Nc3ccc(S(N)(=O)=O)cc3)ncc2C#N)cn1
[reply] < 100 nM

[ask] Return reported IC50. Input molecule: C[C@H](O)[C@@H](C)n1cc(-c2nc(Nc3ccc(S(N)(=O)=O)cc3F)ncc2C(F)(F)F)cn1 (single isomer, unassigned)
[reply] 100 to 500 nM

[ask] Return reported IC50. Input molecule: CC(C)(O)Cn1cc(-c2nc(Nc3ccc(S(N)(=O)=O)cc3Cl)ncc2Cl)cn1
[reply] 100 to 500 nM

[ask] Return reported IC50. Input molecule: CC(C)(O)Cn1cc(-c2nc(Nc3ccc(S(N)(=O)=O)cc3Cl)ncc2F)cn1
[reply] ≥ 500 nM

[ask] Return reported IC50. Input molecule: COc1cc(S(N)(=O)=O)ccc1Nc1ncc(F)c(-c2cnn(CC(C)(C)O)c2)n1
[reply] ≥ 500 nM
